target: XIAP BIR3 (N-His-Tb-BIR3(241-356, XIAP)) (Homo sapiens (Human), UniProt P98170); type: binding; conditions: 130 nM N-His-Tb-BIR3(241-356, XIAP), 1.4 nM fluoresceinated modified SMAC peptide, 60 minutes room temperature; read-out: XIAP BIR3 FPA IC50
Sequence (P98170 241-356): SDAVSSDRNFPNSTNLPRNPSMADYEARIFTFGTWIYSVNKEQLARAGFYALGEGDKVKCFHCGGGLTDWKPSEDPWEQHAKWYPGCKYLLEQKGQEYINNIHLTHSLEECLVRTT
measurementType: IC50 (nM)
Response body: numeric value in nM, unit text excluded.

Example entries begin here.
[
  {
    "compoundStructureString": "CN[C@@H](C)C(=O)N[C@H](C(=O)N1C[C@@H](NC(=O)c2ccc(CN(C(=O)[C@@H]3Cc4ccccc4CN3C(=O)[C@@H](NC(=O)[C@H](C)NC)C(C)(C)C)[C@H](C)c3ccc(F)cc3)cc2)C[C@H]1C(=O)N[C@@H]1CCCc2ccccc21)C(C)(C)C",
    "measurementType": "IC50",
    "reportedValue": 100
  },
  {
    "compoundStructureString": "CN[C@@H](C)C(=O)N[C@H](C(=O)N1C[C@@H](NC(=O)c2ccc(CN(C(=O)[C@@H]3Cc4ccccc4CN3C(=O)[C@@H](NC(=O)[C@H](C)NC)C(C)(C)C)[C@H](C)c3ccccc3OC)cc2)C[C@H]1C(=O)N[C@@H]1CCCc2ccccc21)C(C)(C)C",
    "measurementType": "IC50",
    "reportedValue": 130
  },
  {
    "compoundStructureString": "CN[C@@H](C)C(=O)N[C@H](C(=O)N1C[C@@H](NC(=O)c2ccc(CN(C(=O)[C@@H]3Cc4ccccc4CN3C(=O)[C@@H](NC(=O)[C@H](C)NC)C(C)(C)C)[C@H](C)c3ccccc3C)cc2)C[C@H]1C(=O)N[C@@H]1CCCc2ccccc21)C(C)(C)C",
    "measurementType": "IC50",
    "reportedValue": 160
  }
]

In: # input molecule: CN[C@@H](C)C(=O)N[C@H](C(=O)N1Cc2ccccc2C[C@H]1CN(Cc1cccc(C)c1C)C(=O)c1ccc(C(=O)Nc2ccc3c(c2)CN(C(=O)[C@@H](NC(=O)[C@H](C)NC)C(C)(C)C)[C@H](C(=O)N[C@@H]2CCCc4ccccc42)C3)cc1)C(C)(C)C ; wanted: its IC50
Out: 230
